- assay.explanation: PAMPA permeability
- cond: PAMPA, Perm. (1 × 10^−6 cm/sec)
Examples of compounds with documented Papp follow.

Below: 3 compounds and their reported Papp.
// query Which measured Papp value corresponds to CC1=C(C(=O)Nc2cc(C(=O)O)ccn2)C(c2ccccc2Cl)N=C(Nc2nc3cccc(N)c3o2)N1 (racemic) ?
// result < 1 ×10⁻⁶ cm/s

// query And CC1=C(C(=O)Nc2ccc(N3CCNCC3)cc2)C(c2ccccc2Cl)N=C(Nc2nc3ccccc3o2)N1 (stereo not drawn) ?
// result 894 ×10⁻⁶ cm/s

// query And CC1=C(C(=O)Nc2cc(C(=O)O)ccn2)C(c2ccccc2Cl)N=C(Nc2nc3ccccc3o2)N1 (racemic) ?
// result < 1 ×10⁻⁶ cm/s

Next:
// query Which measured Papp value corresponds to CC1=C(C(=O)Nc2cc(C(=O)O)ccn2)C(c2ccc(C)cc2Cl)N=C(Nc2nc3cccc(N)c3o2)N1 (racemic) ?
// result < 1 ×10⁻⁶ cm/s

// query And CC1=C(C(=O)NCc2cnn(C)c2)C(c2ccc(C)cc2Cl)N=C(Nc2nc3cccc(N)c3o2)N1 (racemic) ?
// result 25.3 ×10⁻⁶ cm/s

* * *

- tgt: recombinant human GALK1 (Homo sapiens)
- Sequence (P51570 whole entry): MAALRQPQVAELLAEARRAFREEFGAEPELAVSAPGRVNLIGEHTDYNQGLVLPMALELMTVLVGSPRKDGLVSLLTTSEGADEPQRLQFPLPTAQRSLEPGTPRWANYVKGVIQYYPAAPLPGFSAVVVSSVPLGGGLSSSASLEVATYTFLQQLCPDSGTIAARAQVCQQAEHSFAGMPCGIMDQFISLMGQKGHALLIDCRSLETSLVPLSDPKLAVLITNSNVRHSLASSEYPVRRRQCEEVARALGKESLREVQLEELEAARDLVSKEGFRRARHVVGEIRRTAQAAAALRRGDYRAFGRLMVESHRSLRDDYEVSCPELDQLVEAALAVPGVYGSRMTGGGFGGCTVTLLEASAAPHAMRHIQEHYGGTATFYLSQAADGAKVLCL
- assay.explanation: hGALK1 biochemical activity assay (Kinase-Glo Plus, ATP depletion)
- cond: Tables 2-15; 35 μM ATP, 100 μM galactose, 1 h; bracketed figure after some values (e.g. −1.2) is undefined and not reported; read-out: hGALK IC50
Classify: condition met when IC50 is strictly less than 2 µM; condition not met when IC50 is not.

Example entries and their recorded answers appear below.
// query Determine if CC1=C(C(=O)Nc2cc(C(=O)O)ccn2)C(c2ccccc2Br)N=C(Nc2nc3ccc(F)cc3o2)N1 (stereo not drawn) [Compound 75] shows IC50 strictly lower than 2 µM.
// result condition met

// query And CC1=C(C(=O)Nc2cc(C(=O)O)ccn2)C(c2ccc(-c3ccc(C(F)(F)F)cc3)cc2Cl)N=C(Nc2nc3ccc(F)cc3o2)N1 (stereo not drawn) [Compound 68] ?
// result condition not met

// query And CC1=C(C(=O)Nc2cc(C(=O)O)ccn2)C(c2ccccc2Cl)N=C(Nc2nc3cccc(N)c3o2)N1 (racemic) [Compound 3] ?
// result condition met

// query And CC1=C(C(=O)Nc2nc(CO)cs2)C(c2ccccc2Cl)N=C(Nc2nc3ccccc3o2)N1 (stereo not drawn) [Compound 198] ?
// result condition not met

// query And CC1=C(C(=O)Nc2cccc(CN)c2)C(c2ccccc2Cl)N=C(Nc2nc3ccccc3o2)N1 (stereo not drawn) [Compound 171] ?
// result condition not met

Next:
// query Determine if CC1=C(C(=O)Nc2ccc(-n3cncn3)cc2)C(c2ccccc2Cl)N=C(Nc2nc3ccccc3o2)N1 (stereo not drawn) [Compound 191] shows IC50 strictly lower than 2 µM.
// result condition not met

// query And CC1=C(C(=O)Nc2cc(C(=O)O)ccn2)C(c2cccc(N)c2Cl)N=C(Nc2nc3ccc(F)cc3o2)N1 (stereo not drawn) [Compound 64] ?
// result condition not met

// query And CC1=C(C(=O)Nc2cc(C(=O)O)ccn2)C(c2ccccc2Cl)N=C(Nc2nc3cccc(Cl)c3o2)N1 (stereo not drawn) [Compound 17] ?
// result condition met

// query And CC1=C(C(=O)Nc2ccc(CN)cc2)C(c2ccccc2Cl)N=C(Nc2nc3ccccc3o2)N1 (stereo not drawn) [Compound 169] ?
// result condition not met

// query And CC1=C(C(=O)NCc2cnn(CC(F)(F)F)c2)C(c2ccc(C)cc2Cl)N=C(Nc2nc3ccc(F)c(N)c3o2)N1 (stereo not drawn) [Compound 131] ?
// result condition met

// query And CC1=C(C(=O)Nc2nnc(C)s2)C(c2ccccc2Cl)N=C(Nc2nc3ccccc3o2)N1 (stereo not drawn) [Compound 173] ?
// result condition not met

// query And CC1=C(C(=O)NCc2c(C)nn(C)c2C)C(c2ccc(C)cc2Cl)N=C(Nc2nc3ccc(F)cc3o2)N1 (stereo not drawn) [Compound 111] ?
// result condition not met

// query And COc1ccc(C2N=C(Nc3nc4cccc(N)c4o3)NC(C)=C2C(=O)Nc2cc(C(=O)O)ccn2)c(Cl)c1 (racemic) [Compound 80] ?
// result condition met

// query And CC1=C(C(=O)Nc2nncs2)C(c2ccccc2Cl)N=C(Nc2nc3ccccc3o2)N1 (stereo not drawn) [Compound 205] ?
// result condition not met

// query And CC1=C(C(=O)Nc2ccc(F)cc2)C(c2ccccc2Cl)N=C(Nc2nc3ccccc3o2)N1 (stereo not drawn) [Compound 148] ?
// result condition not met
